Every entry's value here was drawn from patent EP4644396A1.

# test-target: human TLR8 (Homo sapiens, UniProt Q9NR97)
# Construct: expressed in transfected cells
# Sequence (Q9NR97 27-1041): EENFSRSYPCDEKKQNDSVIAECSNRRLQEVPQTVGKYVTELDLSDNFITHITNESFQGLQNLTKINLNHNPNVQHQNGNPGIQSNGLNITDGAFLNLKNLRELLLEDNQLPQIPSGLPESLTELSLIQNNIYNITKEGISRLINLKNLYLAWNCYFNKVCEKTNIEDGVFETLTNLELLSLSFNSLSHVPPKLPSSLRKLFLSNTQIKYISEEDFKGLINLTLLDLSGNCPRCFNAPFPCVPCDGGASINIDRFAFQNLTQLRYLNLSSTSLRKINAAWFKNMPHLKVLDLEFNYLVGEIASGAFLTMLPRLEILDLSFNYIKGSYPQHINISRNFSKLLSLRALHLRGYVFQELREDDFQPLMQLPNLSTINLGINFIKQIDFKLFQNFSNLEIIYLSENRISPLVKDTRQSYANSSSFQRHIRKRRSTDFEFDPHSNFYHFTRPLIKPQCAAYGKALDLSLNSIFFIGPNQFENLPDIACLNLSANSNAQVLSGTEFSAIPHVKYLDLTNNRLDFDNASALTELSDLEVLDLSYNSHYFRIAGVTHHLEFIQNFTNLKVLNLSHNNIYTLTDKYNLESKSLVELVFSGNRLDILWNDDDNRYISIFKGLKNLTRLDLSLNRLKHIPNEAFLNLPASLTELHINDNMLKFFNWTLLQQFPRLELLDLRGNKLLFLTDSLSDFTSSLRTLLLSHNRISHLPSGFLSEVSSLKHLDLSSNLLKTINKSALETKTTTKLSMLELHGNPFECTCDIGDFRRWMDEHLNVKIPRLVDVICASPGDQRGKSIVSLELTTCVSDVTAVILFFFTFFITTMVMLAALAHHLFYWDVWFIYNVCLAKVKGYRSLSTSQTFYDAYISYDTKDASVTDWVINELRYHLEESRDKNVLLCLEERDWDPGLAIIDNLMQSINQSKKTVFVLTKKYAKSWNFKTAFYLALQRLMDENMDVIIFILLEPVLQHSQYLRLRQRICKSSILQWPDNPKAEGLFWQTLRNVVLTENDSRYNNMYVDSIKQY
# assay-name: HEK-Blue hTLR8 SEAP reporter gene inhibition assay
# Assay type: cell-based
# assay-conditions: hTLR8 HEK-Blue cells, TLR8 ligand 10 µM, 20 hours, SEAP by Quanti-blue; class symbols; read-out: HEK-Blue hTLR8 IC50
pIC50: −log10 of the molar value.
observable: pIC50

Guide cases for pIC50, answers given:
compound | pIC50
C[C@@H]1CN(c2ccc(C#N)n3ncc(F)c23)Cc2c3c(nn21)CN(C1CCOC1)[C@@H](C)C3 (some centres unmarked) [Example I-142] | < 7.00
C[C@@H]1CN(c2ccc(C#N)n3ncc(F)c23)Cc2c3c(nn21)CN(CC(=O)N1CCC(F)(F)C1)[C@@H](C)C3 [Example I-152] | < 7.00
C[C@@H]1CN(c2ccc(C#N)n3ncc(F)c23)Cc2c3c(nn21)CN(CC(=O)N1CCCC1)[C@@H](C)C3 [Example I-151] | < 7.00

Fill in the recorded pIC50 for this compound, with human TLR8 (Homo sapiens, UniProt Q9NR97) as test system: C[C@@H]1CN(c2ccc(C#N)n3ncc(F)c23)Cc2c3c(nn21)CC(C)(N)CC3 (single isomer, unassigned) [Example I-71a] > 7.00

Fill in the recorded pIC50 for this compound, with human TLR8 (Homo sapiens, UniProt Q9NR97) as test system: C[C@@H]1CN(c2ccc(C#N)n3ncc(F)c23)Cc2c3c(nn21)CC(N)CC3 (some centres unmarked) [Example I-20] > 7.00

Fill in the recorded pIC50 for this compound, with human TLR8 (Homo sapiens, UniProt Q9NR97) as test system: C[C@@H]1CN(C(=O)CN2Cc3nn4c(c3C[C@@H]2C)CN(c2ccc(C#N)n3ncc(F)c23)C[C@H]4C)C[C@@H](C)N1 [Example I-146] < 7.00

Fill in the recorded pIC50 for this compound, with human TLR8 (Homo sapiens, UniProt Q9NR97) as test system: C[C@@H]1CN(c2ccc(C#N)n3ncc(F)c23)Cc2c3c(nn21)CN([C@@H]1CCNC1=O)[C@@H](C)C3 [Example I-155] < 7.00

Fill in the recorded pIC50 for this compound, with human TLR8 (Homo sapiens, UniProt Q9NR97) as test system: C[C@@H]1CN(c2ccc(C#N)n3ncc(F)c23)Cc2c3c(nn21)CN(CC(C)(C)O)[C@@H](C)C3 [Example I-117] > 7.00

Fill in the recorded pIC50 for this compound, with human TLR8 (Homo sapiens, UniProt Q9NR97) as test system: CC(C(N)=O)N1Cc2nn3c(c2C[C@@H]1C)CN(c1ccc(C#N)n2ncc(F)c12)C[C@H]3C (some centres unmarked) [Example I-156] < 7.00

Fill in the recorded pIC50 for this compound, with human TLR8 (Homo sapiens, UniProt Q9NR97) as test system: C[C@@H]1CN(c2ccc(C#N)n3ncc(F)c23)Cc2c3c(nn21)CN[C@@H](C)C3 [Example I-30a] > 7.00

Fill in the recorded pIC50 for this compound, with human TLR8 (Homo sapiens, UniProt Q9NR97) as test system: C[C@@H]1CN(c2ccc(C#N)n3ncc(F)c23)Cc2c3c(nn21)CN(CC(N)=O)[C@@H](C)C3 [Example I-99] < 7.00

Fill in the recorded pIC50 for this compound, with human TLR8 (Homo sapiens, UniProt Q9NR97) as test system: C[C@@H]1CN(c2ccc(C#N)n3ncc(F)c23)Cc2c3c(nn21)CCC(C)(N)C3 (single isomer, unassigned) [Example I-80b] < 7.00

Fill in the recorded pIC50 for this compound, with human TLR8 (Homo sapiens, UniProt Q9NR97) as test system: C[C@@H]1CN(c2ccc(C#N)n3ncc(F)c23)Cc2c3c(nn21)CCC(C)(N)C3 (single isomer, unassigned) [Example I-80a] < 7.00

Fill in the recorded pIC50 for this compound, with human TLR8 (Homo sapiens, UniProt Q9NR97) as test system: C[C@@H]1CN(c2ccc(C#N)n3ncc(F)c23)Cc2c3c(nn21)CN(C[C@@](C)(O)CO)[C@@H](C)C3 [Example I-224] > 7.00

* * *

# test-target: human TLR8 (Homo sapiens, UniProt Q9NR97)
# Construct: expressed in transfected cells
# assay-name: HEK-Blue hTLR8 SEAP reporter gene inhibition assay
# Assay type: cell-based
# assay-conditions: hTLR8 HEK-Blue cells, TLR8 ligand 10 µM, 20 hours, SEAP by Quanti-blue; class symbols; read-out: HEK-Blue hTLR8 IC50
observable: IC50

compound | value-observed
C[C@@H]1CN(c2ccc(C#N)n3ncc(F)c23)Cc2c3c(nn21)C(CO)NCC3 (stereo partly shown) | < 100 nM
C[C@@H]1CN(c2ccc(C#N)n3ncc(F)c23)Cc2c3c(nn21)CN(CCO)CC3 | > 100 nM
C[C@@H]1CN(c2ccc(C#N)c3ncccc23)Cc2c3c(nn21)CN[C@@H](C)C3 | < 100 nM

Please give the measured IC50 for this compound: C[C@@H]1CN(c2ccc(C#N)n3ncc(F)c23)Cc2c3c(nn21)CNC(C(C)(C)O)C3 (stereo partly shown) > 100 nM

Please give the measured IC50 for this compound: C[C@@H]1CN(c2ccc(C#N)n3ncc(F)c23)Cc2c3c(nn21)CC(C)(C)NC3 < 100 nM

Please give the measured IC50 for this compound: COC[C@@H]1CCCN1CC(=O)N1Cc2nn3c(c2C[C@@H]1C)CN(c1ccc(C#N)n2ncc(F)c12)C[C@H]3C < 100 nM

Please give the measured IC50 for this compound: C[C@@H]1CN(c2ccc(C#N)n3ncc(F)c23)Cc2c3c(nn21)CN(CC12CC(C(N)=O)(C1)C2)[C@@H](C)C3 < 100 nM

* * *

// values below are reported pIC50
# test-target: human TLR7 (Homo sapiens, UniProt Q9NYK1)
# Sequence (Q9NYK1 27-1049): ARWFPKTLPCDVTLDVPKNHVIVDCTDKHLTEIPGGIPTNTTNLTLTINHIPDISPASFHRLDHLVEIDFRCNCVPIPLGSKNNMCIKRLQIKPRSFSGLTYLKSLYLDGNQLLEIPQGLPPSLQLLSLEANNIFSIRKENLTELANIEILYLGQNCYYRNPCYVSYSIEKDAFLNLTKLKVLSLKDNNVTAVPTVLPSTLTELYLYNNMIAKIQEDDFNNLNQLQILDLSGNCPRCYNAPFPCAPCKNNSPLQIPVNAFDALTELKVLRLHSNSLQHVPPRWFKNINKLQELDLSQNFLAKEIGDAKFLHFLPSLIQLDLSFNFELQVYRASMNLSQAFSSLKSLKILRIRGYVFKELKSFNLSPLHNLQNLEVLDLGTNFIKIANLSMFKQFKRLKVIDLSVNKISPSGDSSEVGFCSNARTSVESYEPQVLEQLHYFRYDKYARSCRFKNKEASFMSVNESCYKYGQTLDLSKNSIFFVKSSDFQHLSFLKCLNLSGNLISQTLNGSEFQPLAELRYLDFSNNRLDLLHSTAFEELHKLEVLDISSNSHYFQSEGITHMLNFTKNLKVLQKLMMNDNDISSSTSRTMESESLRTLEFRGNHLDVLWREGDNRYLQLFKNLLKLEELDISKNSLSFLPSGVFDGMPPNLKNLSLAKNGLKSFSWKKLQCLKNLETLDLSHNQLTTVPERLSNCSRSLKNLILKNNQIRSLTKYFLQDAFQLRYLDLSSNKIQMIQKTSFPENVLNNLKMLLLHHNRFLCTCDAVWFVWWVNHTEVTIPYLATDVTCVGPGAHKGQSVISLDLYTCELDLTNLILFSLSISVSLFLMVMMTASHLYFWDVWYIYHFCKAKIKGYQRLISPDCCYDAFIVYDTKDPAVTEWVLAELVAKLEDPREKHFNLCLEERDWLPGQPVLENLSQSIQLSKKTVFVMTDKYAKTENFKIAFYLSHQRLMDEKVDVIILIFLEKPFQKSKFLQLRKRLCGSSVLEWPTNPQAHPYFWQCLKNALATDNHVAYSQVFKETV
# assay-name: HEK-Blue hTLR7 SEAP reporter gene inhibition assay
# Type: cell-based
# assay-conditions: hTLR7 HEK-Blue cells, TLR7 ligand Gardiquimod 10 µM, 20 hours, SEAP by Quanti-blue; class symbols; read-out: HEK-Blue hTLR7 IC50
pIC50: −log10 of the molar value.

compound | test-target | observable | value-observed
C[C@@H]1CN(c2ccc(C#N)n3ncc(F)c23)Cc2c3c(nn21)CN(CC(=O)N1CCOCC1)[C@@H](C)C3 [Example I-139] | human TLR7 (Homo sapiens, UniProt Q9NYK1) | pIC50 | > 7.30
C[C@@H]1CN(c2ccc(C#N)n3ncc(F)c23)Cc2c3c(nn21)CN(S(=O)(=O)CCN(C)C)[C@@H](C)C3 [Example I-118] | human TLR7 (Homo sapiens, UniProt Q9NYK1) | pIC50 | > 7.30

Field: next compound
Please give the measured pIC50 for this compound: C[C@@H]1Cc2c(nn3c2CN(c2ccc(C#N)n4ncc(F)c24)C[C@H]3C)CN1 [Example I-30b] > 7.30

* * *

// values below are reported pIC50
# test-target: human TLR7 (Homo sapiens, UniProt Q9NYK1)
# assay-name: HEK-Blue hTLR7 SEAP reporter gene inhibition assay
# Format: cell-based
# assay-conditions: hTLR7 HEK-Blue cells, TLR7 ligand Gardiquimod 10 µM, 20 hours, SEAP by Quanti-blue; class symbols; read-out: HEK-Blue hTLR7 IC50
pIC50: −log10 of the molar value.

Guide cases for pIC50, answers given:
compound | test-target | observable | value-observed
C[C@@H]1CN(c2ccc(C#N)n3ncc(F)c23)Cc2c3c(nn21)CN(CC12CC(C(N)=O)(C1)C2)[C@@H](C)C3 [Example I-193] | human TLR7 (Homo sapiens, UniProt Q9NYK1) | pIC50 | < 7.30
C[C@@H]1Cc2c(nn3c2CN(c2ccc(C#N)n4ncc(F)c24)C[C@H]3C)[C@H](C)N1 [Example I-59] | human TLR7 (Homo sapiens, UniProt Q9NYK1) | pIC50 | > 7.30
C[C@@H]1CN(c2ccc(C#N)n3ncc(F)c23)Cc2c3c(nn21)C[C@@](C)(N1CCC(O)C1)CC3 (stereo partly drawn) [Example I-188] | human TLR7 (Homo sapiens, UniProt Q9NYK1) | pIC50 | < 7.30
C[C@@H]1CN(c2ccc(C#N)n3ncc(F)c23)Cc2c3c(nn21)CN(CC(=O)N1CCCC1)[C@@H](C)C3 [Example I-151] | human TLR7 (Homo sapiens, UniProt Q9NYK1) | pIC50 | > 7.30

Please give the measured pIC50 for this compound: C[C@@H]1CN(c2ccc(C#N)n3ncc(F)c23)Cc2c3c(nn21)CNCC3CO (stereo partly drawn) [Example I-40] < 7.30

Please give the measured pIC50 for this compound: COC(=O)C1(CN2Cc3nn4c(c3C[C@@H]2C)CN(c2ccc(C#N)n3ncc(F)c23)C[C@H]4C)CC1 [Example I-192] < 7.30

Please give the measured pIC50 for this compound: C[C@@H]1CN(c2ccc(C#N)n3ncc(F)c23)Cc2c3c(nn21)CN(C1CCC1O)[C@@H](C)C3 (stereo partly drawn) [Example I-174] > 7.30

Please give the measured pIC50 for this compound: CC1CNCc2c1nn1c2CN(c2ccc(C#N)n3ncc(F)c23)C[C@H]1C (stereo partly drawn) [Example I-12] > 7.30

Please give the measured pIC50 for this compound: C[C@@H]1Cc2c(nn3c2CN(c2ccc(C#N)n4ncc(F)c24)C[C@H]3C)[C@H](C)N1CC(N)=O [Example I-165] > 7.30

Please give the measured pIC50 for this compound: C[C@@H]1CN(c2ccc(C#N)n3ncc(F)c23)Cc2c3c(nn21)CN(CC(=O)N1CC(F)(F)C1)[C@@H](C)C3 [Example I-140] > 7.30

Please give the measured pIC50 for this compound: C[C@@H]1NCCc2c1nn1c2CN(c2ccc(C#N)n3ncc(F)c23)C[C@H]1C [Example I-39] > 7.30
